Ref: patent US20250163127A1

# system_name: CD28 (human) (UniProt P10747)
# assay_details: flow cytometry, Jurkat cells (CD28)
I'd be grateful if you could share measured MFI at 33.3 nM for these entries.
Your answer is read as MFI, so omit the unit and give the number.

*Q* So what's the measured MFI at 33.3 nM for this one? variant CD80 E35D/M47I/T62S/L85Q (Fc fusion) VIHVTKEVKEVATLSCGHNVSVEELAQTRIYWQKDKKMVLTMMSGDINIWPEYKNRTIFDISNNLSIVILALRPSDEGTYECVVQKYEKDAFKREHLAEVT
*A* 1760

*Q* So what's the measured MFI at 33.3 nM for this one? variant CD80 E35D/M47I/L85Q/D90G (Fc fusion) VIHVTKEVKEVATLSCGHNVSVEELAQTRIYWQKDKKMVLTMMSGDINIWPEYKNRTIFDITNNLSIVILALRPSDEGTYECVVQKYEKGAFKREHLAEVT
*A* 4100

*Q* So what's the measured MFI at 33.3 nM for this one? CD80 variant A26E/Q33R/E35D/M47L/L85Q/K86E IgV-Fc (Fc fusion) VIHVTKEVKEVATLSCGHNVSVEELEQTRIYWRKDKKMVLTMMSGDLNIWPEYKNRTIFDITNNLSIVILALRPSDEGTYECVVQEYEKDAFKREHLAEVT
*A* 275

*Q* So what's the measured MFI at 33.3 nM for this one? CD80 variant H18Y/E35D/V68M/L97Q IgV-Fc (Fc fusion) VIHVTKEVKEVATLSCGYNVSVEELAQTRIYWQKDKKMVLTMMSGDMNIWPEYKNRTIFDITNNLSIMILALRPSDEGTYECVVLKYEKDAFKREHQAEVT
*A* 299
